Reported values of melting point for individual entries

Field: example entries. Status: answers known.
CC(=O)c1ccc2c(c1)C(c1ccccc1F)=NC(C)(C)C(=O)N2C    68 °C
CN(C)C(=O)Cn1c(-c2ccc(C(F)(F)F)cc2)nc2cccnc21    181 to 183 °C
N#CCOC(=O)c1ccc(CNC(=O)CCCCCN2C(=O)C=CC2=O)cc1O    141 to 144 °C
O=C(O)C1=Cc2cc(Cl)cc(C#CCCCCl)c2OC1C(F)(F)F (centres undefined)    154 to 156 °C
COc1cc(Nc2c(C#N)cnc3c2C=C2N=C(NCCN4CCOCC4)N=C2C3)cc(OC)c1OC    175 to 178 °C

Looking up COC(=O)CCCc1cc2nc(Cl)ccc2n1S(=O)(=O)c1ccc(F)cc1 , I see its melting point listed as 119 °C

Looking up CCc1nc2c(N)nc3cc(Br)ccc3c2n1CC1CCN(C(=O)OC(C)(C)C)CC1 , I see its melting point listed as 131 to 132 °C

Looking up Cc1[nH]c([N+](=O)[O-])c(C)c1-c1ccnc(Nc2ccc(F)cc2)n1 , I see its melting point listed as 166 to 170 °C

Looking up Oc1ccc(-c2cnc3cnc(-c4cccc(O)c4)nc3c2)cc1 , I see its melting point listed as > 268 °C

Looking up COc1cc(C2C3=C(COC3=O)Nc3ccc4nn[nH]c4c32)cc(OC)c1OC (centres undefined) , I see its melting point listed as 324 to 325 °C

Looking up CS(=O)(=O)OCCc1ccc([N+](=O)[O-])cc1COS(C)(=O)=O , I see its melting point listed as 83 to 85 °C

Looking up O=C1c2cccc(NC(=S)Nc3cccc4c3C3CC5(CCN3C4=O)SCCS5)c2C2CC3(CCN12)SCCS3 (centres undefined) , I see its melting point listed as 188 °C

Looking up CC(C)CCOc1ccc2sc(C(=O)O)cc(=O)c2c1 , I see its melting point listed as 208 to 209 °C

Looking up CCOC(=O)N1CCC2(CC1)C(=O)NCN2c1ccc(F)cc1 , I see its melting point listed as 153 °C

Looking up COc1cc(Nc2c(C#N)cnc3cc4c(cc23)ncn4CCN2CCOCC2)c(C)cc1Cl , I see its melting point listed as 246 to 248 °C

Looking up COc1cc(C(=O)c2ccc(C(F)(F)F)cc2)ccc1O , I see its melting point listed as 97 °C

Looking up CC(C)C[C@@H](C(=O)N1CCN(C(c2ccc(F)cc2)c2ccc(F)cc2)CC1)N(Cc1ccc(C(C)(C)C)cc1)Cc1ccc(C(C)(C)C)cc1 , I see its melting point listed as 78 to 86 °C

Looking up COc1ccc(-c2n[nH]c3ccc([N+](=O)[O-])cc23)cc1 , I see its melting point listed as 153 °C

Looking up CN1CCCN=C1C(Br)(Br)[N+](=O)[O-] , I see its melting point listed as 106 to 107 °C

The origin of these recorded values is a melting point compilation (Tetko et al.; mined from patent text by program, amines drawn as free bases though some values may be those of a salt).
